Assay: Peptide stability in simulated intestinal fluid (SIF)
Assay type: in vitro ADME
Conditions: pig, simulated intestinal fluid (SIF) with porcine pancreatin; 4 h, 37 °C, pH 6.8, porcine pancreatin 10 g/L, 10 µM; read-out: SIF (% remaining 4 h)
*1 amine or outer side, *2 acyl side, *3 side chain or, on linkers, in order; H or OH if unused. Where a SMILES comes first, the peptide text is derived from it. Bridges are numbered along the chain shown (N, C = ends). [ ]: non-standard residue; d: D form. 2Nal = N[C@@H](Cc1ccc2ccccc2c1)C(=O)O; AEF = NCCOc1ccc(C[C@H](N)C(=O)O)cc1; X1 = O=C(Cc1ccc(CN[*:1])cc1)[*:2]; 3Pal = N[C@@H](Cc1cccnc1)C(=O)O; αMeL = CC(C)C[C@](C)(N)C(=O)O; Orn = NCCC[C@H](N)C(=O)O; Dab = NCC[C@H](N)C(=O)O
Please use 1 for remaining at 4 h, 10 µM under 90% and 0 for everything else, ties included.

# MOLECULE, LABEL
data = [
    ("CC(C)C[C@]1(C)NC(=O)[C@H](Cc2ccc3ccccc3c2)NC(=O)[C@H](Cc2ccc(OCCN)cc2)NC(=O)[C@@H]2CCNC(=O)CC[C@H](NC(=O)[C@H](CO)NC(=O)Cc3ccc(cc3)CNC(=O)CC[C@@H](C(=O)N[C@@H](CCN)C(=O)N[C@@H](Cc3c[nH]cn3)C(=O)N[C@@H](Cc3cccnc3)C(N)=O)NC1=O)C(=O)N[C@@H](Cc1c[nH]c3ccccc13)C(=O)N[C@@H](CCC(N)=O)C(=O)N2 [Compound 12] ([X1]SEWQ[Dab][AEF][2Nal][αMeL]E[Dab]H[3Pal]-NH2; lactam 3-6, N-10)", 1),
    ("CNC(=O)[C@H](Cc1cccnc1)NC(=O)[C@H](CCN)NC(=O)[C@@H]1CCC(=O)NCc2ccc(cc2)CC(=O)N[C@@H](CO)C(=O)N[C@H]2CCC(=O)NCC[C@H](NC(=O)[C@H](CCCN)NC(=O)[C@H](Cc3c[nH]c4ccccc34)NC2=O)C(=O)N[C@@H](Cc2ccc(OCCN)cc2)C(=O)N[C@@H](Cc2ccc3ccccc3c2)C(=O)N[C@@](C)(CC(C)C)C(=O)N1 [Compound 28] ([X1]SEW[Orn][Dab][AEF][2Nal][αMeL]E[Dab][3Pal]-NHMe; lactam 3-6, N-10)", 0),
]

Dear colleague, could you confirm whether remaining at 4 h, 10 µM of CNC(=O)[C@H](Cc1cccnc1)NC(=O)[C@H](CO)NC(=O)[C@@H]1CCC(=O)NCc2ccc(cc2)CC(=O)N[C@@H](C)C(=O)N[C@H]2CCC(=O)NCC[C@H](NC(=O)[C@H](CCC(N)=O)NC(=O)[C@H](Cc3c[nH]c4ccccc34)NC2=O)C(=O)N[C@@H](Cc2ccc(OCCN)cc2)C(=O)N[C@@H](Cc2ccc3ccccc3c2)C(=O)N[C@@](C)(CC(C)C)C(=O)N1 [Compound 40] ([X1]AEWQ[Dab][AEF][2Nal][αMeL]ES[3Pal]-NHMe; lactam 3-6, N-10) falls below 90%? Thanks.
1

---

Let's look at some compounds and their measured IC50.
Target sequence: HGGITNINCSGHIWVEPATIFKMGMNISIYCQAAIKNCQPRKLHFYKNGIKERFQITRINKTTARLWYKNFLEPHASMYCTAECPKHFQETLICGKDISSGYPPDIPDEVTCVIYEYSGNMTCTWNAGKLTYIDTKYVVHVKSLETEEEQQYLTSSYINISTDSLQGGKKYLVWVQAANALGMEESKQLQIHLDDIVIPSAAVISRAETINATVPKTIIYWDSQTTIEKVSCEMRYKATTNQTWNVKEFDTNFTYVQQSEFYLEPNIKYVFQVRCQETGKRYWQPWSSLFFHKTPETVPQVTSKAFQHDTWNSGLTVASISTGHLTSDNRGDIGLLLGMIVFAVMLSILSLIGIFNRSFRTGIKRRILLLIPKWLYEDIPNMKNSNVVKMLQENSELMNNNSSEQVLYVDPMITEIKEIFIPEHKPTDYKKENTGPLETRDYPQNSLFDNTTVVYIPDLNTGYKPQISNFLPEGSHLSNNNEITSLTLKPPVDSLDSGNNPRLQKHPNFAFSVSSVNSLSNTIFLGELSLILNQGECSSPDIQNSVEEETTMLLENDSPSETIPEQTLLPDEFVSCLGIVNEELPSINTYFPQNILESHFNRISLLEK
*1 amine or outer side, *2 acyl side, *3 side chain or, on linkers, in order; H or OH if unused. Where a SMILES comes first, the peptide text is derived from it. Bridges are numbered along the chain shown (N, C = ends). [ ]: non-standard residue; d: D form. 2Nal = N[C@@H](Cc1ccc2ccccc2c1)C(=O)O; AEF = NCCOc1ccc(C[C@H](N)C(=O)O)cc1; X1 = O=C(Cc1ccc(CN[*:1])cc1)[*:2]; 3Pal = N[C@@H](Cc1cccnc1)C(=O)O; αMeL = CC(C)C[C@](C)(N)C(=O)O; Dab = NCC[C@H](N)C(=O)O
Answer in nM, number only, no unit symbol.

These recorded examples may help you get a feel for the data.
# COMPOUND, QUANTITATIVE READOUT
rows = [
    ("CNC(=O)[C@H](Cc1cccnc1)NC(=O)[C@H](CCN)NC(=O)[C@@H]1CCC(=O)NCc2ccc(cc2)CC(=O)N[C@@H](C)C(=O)N[C@H]2CCC(=O)NCC[C@H](NC(=O)[C@H](CCC(N)=O)NC(=O)[C@H](Cc3c[nH]c4ccccc34)NC2=O)C(=O)N[C@@H](Cc2ccc(OCCN)cc2)C(=O)N[C@@H](Cc2ccc3ccccc3c2)C(=O)N[C@@](C)(CC(C)C)C(=O)N1", 0.012),
    ("CC(C)C[C@]1(C)NC(=O)[C@H](Cc2ccc3ccccc3c2)NC(=O)[C@H](Cc2ccc(OCCN)cc2)NC(=O)[C@@H]2CCNC(=O)CC[C@H](NC(=O)[C@H](CO)NC(=O)Cc3ccc(cc3)CNC(=O)CC[C@@H](C(=O)N[C@@H](CCN)C(=O)N[C@@H](Cc3cccnc3)C(=O)N[C@H](Cc3c[nH]cn3)C(N)=O)NC1=O)C(=O)N[C@@H](Cc1c[nH]c3ccccc13)C(=O)N[C@@H](CCC(N)=O)C(=O)N2 [Compound 10] ([X1]SEWQ[Dab][AEF][2Nal][αMeL]E[Dab][3Pal][dH]-NH2; lactam 3-6, N-10)", 0.0058),
    ("CC(C)C[C@]1(C)NC(=O)[C@H](Cc2ccc3ccccc3c2)NC(=O)[C@H](Cc2ccc(OCCN)cc2)NC(=O)[C@@H]2CCNC(=O)CC[C@H](NC(=O)[C@H](CO)NC(=O)Cc3ccc(cc3)CNC(=O)CC[C@@H](C(=O)N[C@@H](CCN)C(=O)N[C@H](Cc3c[nH]cn3)C(N)=O)NC1=O)C(=O)N[C@@H](Cc1c[nH]c3ccccc13)C(=O)N[C@@H](CCC(N)=O)C(=O)N2", 0.059),
    ("CC(C)C[C@]1(C)NC(=O)[C@H](Cc2ccc3ccccc3c2)NC(=O)[C@H](Cc2ccc(OCCN)cc2)NC(=O)[C@@H]2CCNC(=O)CC[C@H](NC(=O)[C@H](CO)NC(=O)Cc3ccc(cc3)CNC(=O)CC[C@@H](C(=O)N[C@@H](CCN)C(=O)NCCc3cccnc3)NC1=O)C(=O)N[C@@H](Cc1c[nH]c3ccccc13)C(=O)N[C@@H](CCC(N)=O)C(=O)N2", 0.012),
]

Kindly consider the entry below.
Answer with reported IC50 of CNC(=O)[C@H](Cc1cccnc1)NC(=O)[C@H](CCN)NC(=O)[C@@H]1CCC(=O)NCc2ccc(cc2)CC(=O)N[C@@H](Cc2ccccc2)C(=O)N[C@H]2CCC(=O)NCC[C@H](NC(=O)[C@H](CCC(N)=O)NC(=O)[C@H](Cc3c[nH]c4ccccc34)NC2=O)C(=O)N[C@@H](Cc2ccc(OCCN)cc2)C(=O)N[C@@H](Cc2ccc3ccccc3c2)C(=O)N[C@@](C)(CC(C)C)C(=O)N1 [Compound 21] ([X1]FEWQ[Dab][AEF][2Nal][αMeL]E[Dab][3Pal]-NHMe; lactam 3-6, N-10)
0.014
